Biological target: Retinaldehyde dehydrogenase 3 (Homo sapiens)
Assay: qHTS for Inhibitors of the Aldehyde Dehydrogenase Family (ALDH1A3) Confirmatory screens (AID 2061311); further: nearly all actives have a fitted effect of over 60% in size
Details: ALDH inhibition qHTS; series mostly up to 46 µM
Inconclusive results are not listed. Calls of active or inactive are those of the source. The call rests on the fitted dose curve; in most records, active means well fitted inhibition curve with a large enough effect; inconclusive means small, poorly fitted or top-dose-only effect; inactive means no such curve, though single readings can be large or run the other way.
Outcome (select one): active, inactive

COc1c(C(C)C)c(O)c(O)c2c1C(OC)[C@H]1OC(=O)[C@@]23CCCC(C)(C)[C@H]13 (stereo partly specified): active
O=C1CC(c2ccccc2)CC2=C1C1(CCCC1)N=C(Nc1nc3ccccc3o1)N2 (stereo unspecified): inactive

[ask] What did the test return for "NC(=O)C1CCN(c2ncc(-c3cccc(N4CCCC4)c3)s2)CC1" ?
[reply] active

###

Target: Cellular tumor antigen p53 (Homo sapiens)
Test: Primary qHTS for small molecule compounds that upregulate eGFP-tagged delta133p53alpha (in N-terminal) cells. (AID 2060322);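 further: cells pre-induced with doxycycline then dosed without doxycycline; 0% = DMSO vehicle and 100% = reference activator; nearly all actives have a fitted effect of over 75% in size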
Settings: NCI-H358 eGFP-delta133p53alpha fluorescence, 24 h; stronger effect = higher value
Records with an inconclusive call do not appear.
measured-quantity: activation (%)
Kindly answer with a numeric value in %, unit omitted.

Consider the reported activation for these compounds:
CCc1cc(C(C)=NOCc2ccc(C3CCCCC3)c(C(F)(F)F)c2)ccc1CN1CC(C(=O)O)C1: 10.9
CNC(=O)c1cc(Oc2ccc(NC(=O)Nc3ccc(Cl)c(C(F)(F)F)c3)cc2)ccn1: 4.11
O=C(CCCN1CCN(c2ccc(F)cc2)CC1)NC1c2ccccc2CSc2ccccc21 (stereo not drawn): -15
CC(=O)NC(C(=O)O[C@H]1CCC(C)(C)[C@@H]2CC=C3C(=O)OCC3(O)[C@@]12C)C(C)C (stereo partly drawn): 20.6
Cc1csc(NC(=O)c2sc3nc4c(c(C(F)(F)F)c3c2N)CCC4)n1: -4.78
CC(C)=CCC/C(C)=C/Cc1ccc(O)c(C2OC(=O)c3cc(C(=O)O)cc(O)c32)c1O (stereo not drawn): -1.53

[ask] Hello, I am looking for reported activation with Cellular tumor antigen p53 (Homo sapiens) for "Cc1cccc(C)c1NC(=O)c1ccccc1C(=O)O" . Could you help?
[reply] 28.5

[ask] Find activation (Cellular tumor antigen p53 (Homo sapiens)) for the entry "C=C1C(=O)O[C@@H]2CC(C)=C([C@@H](C)CCCO)[C@@H](OC(=O)C(C)C)[C@H]12"
[reply] 14.3

[ask] Provide the documented activation with Cellular tumor antigen p53 (Homo sapiens) as the system for Cc1ccccc1C(=O)Nc1ccc(C(=O)N2CCCC(O)c3cc(Cl)ccc32)c(C)c1 (stereo not drawn)
[reply] 0.83

[ask] Give the reported activation for CC1=C(CC/C(C)=C/C(=O)O)[C@@]2(C)CCCC(C)(C)C2CC1=O (stereo partly drawn) (system: Cellular tumor antigen p53 (Homo sapiens)).
[reply] 6.25

[ask] Notebook: pull reported activation for Cellular tumor antigen p53 (Homo sapiens), entry COC(=O)c1cc(OC)cc(OC)c1C(=O)c1c(OC)cc2c(c1O)C1CCC(O)C(C)(O2)O1 (stereo not drawn)
[reply] 25.2

[ask] Lab note: need activation for "O=C(OCCN1CCOCC1)C1(c2ccccc2)CCCCC1" on Cellular tumor antigen p53 (Homo sapiens), anyone have it?
[reply] -19.6

[ask] Notebook entry, Cellular tumor antigen p53 (Homo sapiens) assay: activation of "Oc1ccc2nc(CN3CCC(Cc4ccccc4F)CC3)[nH]c2c1" = ?
[reply] -1.91
